- Tested on: 777334-354-R2-J4-PDC tumor spheroids with HUVEC/MSC, viability
- PROCEDURE TEXT: Anticancer human tumor 777334-354-R2-J4-PDC patient-derived pancreatic adenocarcinoma cell line growth inhibition [GQUAD]; active = viability on the fitted dose curve at most 10% of control; inactive = the rest
- PROTOCOL CONDITIONS: second compound 10 µM; first compound 3.16 µM
Classes used: active, inactive

COMPOUND: CC(C)(O)C1CCC(Nc2ccc3ncc(-c4cccc(C(F)(F)F)c4)n3n2)CC1 (stereo not given) + CN(C)c1ccc(Nc2c3ccc(NC(=O)CCN4CCCC4)cc3nc3cc(NC(=O)CCN4CCCC4)ccc23)cc1
CLASS LABEL: inactive

COMPOUND: C=CC(=O)N1CCN(c2nc(=O)n(-c3c(C)ccnc3C(C)C)c3nc(-c4c(O)cccc4F)c(F)cc23)C(C)C1 (stereo not given) + Cc1[nH]c2ccc(F)cc2c1-c1nc2c3cccnc3c3ncccc3c2[nH]1
CLASS LABEL: inactive

COMPOUND: CC1COCCN1c1cc(C2(O)CC3CCC(C2)O3)c2cnn(-c3ccn[nH]3)c2n1 (stereo not given) + Cc1cnc(CNC(=O)c2c(=O)c3ccc(N4CCCN(C)CC4)nc3n3c2sc2ccccc23)cn1
CLASS LABEL: inactive

COMPOUND: CC1COCCN1c1cc(-c2ccnn2C)c2ccnc(-c3ccn[nH]3)c2n1 (stereo not given) + CN(C)c1ccc(Nc2c3ccc(NC(=O)CCN4CCCC4)cc3nc3cc(NC(=O)CCN4CCCC4)ccc23)cc1
CLASS LABEL: inactive

COMPOUND: C=CC(=O)N1CCN(c2nc(=O)n(-c3c(C)ccnc3C(C)C)c3nc(-c4c(O)cccc4F)c(F)cc23)C(C)C1 (stereo not given) + CN(C)c1ccc(Nc2c3ccc(NC(=O)CCN4CCCC4)cc3nc3cc(NC(=O)CCN4CCCC4)ccc23)cc1
CLASS LABEL: inactive

COMPOUND: C#Cc1c(F)ccc2cc(O)cc(-c3ncc4c(N5CC6CCC(C5)N6)nc(OCC56CCCN5CC(F)C6)nc4c3F)c12 (stereo not given) + CN(C)c1ccc(Nc2c3ccc(NC(=O)CCN4CCCC4)cc3nc3cc(NC(=O)CCN4CCCC4)ccc23)cc1
CLASS LABEL: inactive

COMPOUND: O=C(NO)c1cnc(N2CCN(S(=O)(=O)c3ccc4ccccc4c3)CC2)nc1 + Cc1cnc(CNC(=O)c2c(=O)c3ccc(N4CCCN(C)CC4)nc3n3c2sc2ccccc23)cn1
CLASS LABEL: active

COMPOUND: CC(C)n1c(=O)n(C)c2cnc3cc(F)c(-c4ccc(OCCCN5CCCCC5)nc4)cc3c21 + Cc1cnc(CNC(=O)c2c(=O)c3ccc(N4CCCN(C)CC4)nc3n3c2sc2ccccc23)cn1
CLASS LABEL: inactive

COMPOUND: COc1ncnc(C2CC2)c1-c1ncc2cnn(Cc3ccc(-c4nc(C(F)(F)F)cn4C(C)C)cc3)c2n1 + Cc1cnc(CNC(=O)c2c(=O)c3ccc(N4CCCN(C)CC4)nc3n3c2sc2ccccc23)cn1
CLASS LABEL: inactive

COMPOUND: CC(C)n1c(=O)n(C)c2cnc3cc(F)c(-c4ccc(OCCCN5CCCCC5)nc4)cc3c21 + CN(C)c1ccc(Nc2c3ccc(NC(=O)CCN4CCCC4)cc3nc3cc(NC(=O)CCN4CCCC4)ccc23)cc1
CLASS LABEL: inactive

----------
- System: 777334-354-R2-J4-PDC tumor spheroids with HUVEC/MSC, viability
- PROCEDURE TEXT: Anticancer human tumor 777334-354-R2-J4-PDC cell line growth inhibition [GQUAD];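 also: spheroids exposed to compounds for 7 days before readout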
- PROTOCOL CONDITIONS: second compound 1 µM; first compound 0.0316 µM; stronger effect = lower value
Here the recorded viability, T/C is given for each entry.
ENDPOINT NAME: viability, T/C

COMPOUND: CC1COCCN1c1cc(C2(O)CC3CCC(C2)O3)c2cnn(-c3ccn[nH]3)c2n1 (stereo unspecified) + Cc1cnc(CNC(=O)c2c(=O)c3ccc(N4CCCN(C)CC4)nc3n3c2sc2ccccc23)cn1
VALUE OBSERVED: 59.7%
--
COMPOUND: COc1ccc([C@@H](O)c2cc(-c3ncnc4cc(N5CCOCC5)ccc34)c(F)cc2Cl)nn1 + Cc1[nH]c2ccc(F)cc2c1-c1nc2c3cccnc3c3ncccc3c2[nH]1
VALUE OBSERVED: 79.9%
--
COMPOUND: Cn1ncnc1[C@H]1c2n[nH]c(=O)c3cc(F)cc(c23)N[C@@H]1c1ccc(F)cc1 + Cc1[nH]c2ccc(F)cc2c1-c1nc2c3cccnc3c3ncccc3c2[nH]1
VALUE OBSERVED: 81.9%
--
COMPOUND: C#Cc1c(F)ccc2cc(O)cc(-c3ncc4c(N5CC6CCC(C5)N6)nc(OCC56CCCN5CC(F)C6)nc4c3F)c12 (stereo unspecified) + CN(C)c1ccc(Nc2c3ccc(NC(=O)CCN4CCCC4)cc3nc3cc(NC(=O)CCN4CCCC4)ccc23)cc1
VALUE OBSERVED: 37.1%
--
COMPOUND: COc1cc(C2c3cc4c(cc3C(OC3OC5COC(C)OC5C(O)C3O)C3COC(=O)C23)OCO4)cc(OC)c1O (stereo unspecified) + Cc1[nH]c2ccc(F)cc2c1-c1nc2c3cccnc3c3ncccc3c2[nH]1
VALUE OBSERVED: 89.5%
--
COMPOUND: COc1cccc2c1C(=O)c1c(O)c3c(c(O)c1C2=O)CC(O)(C(=O)CO)CC3OC1CC(N)C(O)C(C)O1 (stereo unspecified) + Cc1cnc(CNC(=O)c2c(=O)c3ccc(N4CCCN(C)CC4)nc3n3c2sc2ccccc23)cn1
VALUE OBSERVED: 63%
--
COMPOUND: O=C(NO)c1cnc(N2CCN(S(=O)(=O)c3ccc4ccccc4c3)CC2)nc1 + Cc1[nH]c2ccc(F)cc2c1-c1nc2c3cccnc3c3ncccc3c2[nH]1
VALUE OBSERVED: 88.4%
--
COMPOUND: CC(C)(O)C1CCC(Nc2ccc3ncc(-c4cccc(C(F)(F)F)c4)n3n2)CC1 (stereo unspecified) + CN(C)c1ccc(Nc2c3ccc(NC(=O)CCN4CCCC4)cc3nc3cc(NC(=O)CCN4CCCC4)ccc23)cc1
VALUE OBSERVED: 78.9%
--
COMPOUND: Cc1cccc(N(C)C(=O)C2C(O)CCN2c2nc(C)cc(C(F)(F)F)c2C#N)c1 (stereo unspecified) + Cc1[nH]c2ccc(F)cc2c1-c1nc2c3cccnc3c3ncccc3c2[nH]1
VALUE OBSERVED: 78.8%
--
COMPOUND: COc1cccc2c1C(=O)c1c(O)c3c(c(O)c1C2=O)CC(O)(C(=O)CO)CC3OC1CC(N)C(O)C(C)O1 (stereo unspecified) + Cc1[nH]c2ccc(F)cc2c1-c1nc2c3cccnc3c3ncccc3c2[nH]1
VALUE OBSERVED: 74.8%
--
COMPOUND: CC1COCCN1c1cc(-c2ccnn2C)c2ccnc(-c3ccn[nH]3)c2n1 (stereo unspecified) + Cc1cnc(CNC(=O)c2c(=O)c3ccc(N4CCCN(C)CC4)nc3n3c2sc2ccccc23)cn1
VALUE OBSERVED: 48.3%

----------
- Tested on: 777334-354-R2-J4-PDC tumor spheroids with HUVEC/MSC, viability
- PROCEDURE TEXT: Anticancer human tumor 777334-354-R2-J4-PDC cell line growth inhibition [GQUAD];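 also: spheroids exposed to compounds for 7 days before readout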
- PROTOCOL CONDITIONS: second compound 3.16 µM; first compound 0.0999 µM; stronger effect = lower value

MOLECULE: Cc1[nH]c2ccccc2c1CCNCc1ccc(/C=C/C(=O)NO)cc1 + Cc1[nH]c2ccc(F)cc2c1-c1nc2c3cccnc3c3ncccc3c2[nH]1
viability, T/C: 52.5%

MOLECULE: CCc1c2c(nc3ccc(O)cc13)-c1cc3c(c(=O)n1C2)COC(=O)[C@]3(O)CC + Cc1[nH]c2ccc(F)cc2c1-c1nc2c3cccnc3c3ncccc3c2[nH]1
viability, T/C: 7.06%

MOLECULE: CC[C@@]1(O)C(=O)OCc2c1cc1n(c2=O)Cc2cc3c(CN(C)C)c(O)ccc3nc2-1 + CN(C)c1ccc(Nc2c3ccc(NC(=O)CCN4CCCC4)cc3nc3cc(NC(=O)CCN4CCCC4)ccc23)cc1
viability, T/C: 51.4%

----------
- Tested on: 777334-354-R2-J4-PDC tumor spheroids with HUVEC/MSC, viability
- PROCEDURE TEXT: Anticancer human tumor 777334-354-R2-J4-PDC cell line growth inhibition [GQUAD];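 also: spheroids exposed to compounds for 7 days before readout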
- PROTOCOL CONDITIONS: curve of first compound; second compound 1 µM

COMPOUND: CC1COCCN1c1cc(C2(S(C)(=N)=O)CC2)nc(-c2ccnc3[nH]ccc23)n1 (stereo not given) + Cc1[nH]c2ccc(F)cc2c1-c1nc2c3cccnc3c3ncccc3c2[nH]1
IC50: 7.07 µM

COMPOUND: COc1cc(C2c3cc4c(cc3C(OC3OC5COC(C)OC5C(O)C3O)C3COC(=O)C23)OCO4)cc(OC)c1O (stereo not given) + Cc1cnc(CNC(=O)c2c(=O)c3ccc(N4CCCN(C)CC4)nc3n3c2sc2ccccc23)cn1
IC50: 5.14 µM

COMPOUND: CC1COCCN1c1cc(C2(O)CC3CCC(C2)O3)c2cnn(-c3ccn[nH]3)c2n1 (stereo not given) + Cc1cnc(CNC(=O)c2c(=O)c3ccc(N4CCCN(C)CC4)nc3n3c2sc2ccccc23)cn1
IC50: 0.13 µM

COMPOUND: C=CC(=O)N1CCN(c2nc(=O)n(-c3c(C)ccnc3C(C)C)c3nc(-c4c(O)cccc4F)c(F)cc23)C(C)C1 (stereo not given) + Cc1[nH]c2ccc(F)cc2c1-c1nc2c3cccnc3c3ncccc3c2[nH]1
IC50: > 10 µM

COMPOUND: CC(C)n1c(=O)n(C)c2cnc3cc(F)c(-c4ccc(OCCCN5CCCCC5)nc4)cc3c21 + Cc1[nH]c2ccc(F)cc2c1-c1nc2c3cccnc3c3ncccc3c2[nH]1
IC50: > 10 µM

Each recorded value in this set is attributed to PubChem BioAssay AID2060499.
